Target: Tyrosine-protein kinase ITK/TSK [357-620,Y512E] (Human, UniProt Q08881, Y512E)
Construct: 357-620
Sequence (Q08881 357-620 Y512E): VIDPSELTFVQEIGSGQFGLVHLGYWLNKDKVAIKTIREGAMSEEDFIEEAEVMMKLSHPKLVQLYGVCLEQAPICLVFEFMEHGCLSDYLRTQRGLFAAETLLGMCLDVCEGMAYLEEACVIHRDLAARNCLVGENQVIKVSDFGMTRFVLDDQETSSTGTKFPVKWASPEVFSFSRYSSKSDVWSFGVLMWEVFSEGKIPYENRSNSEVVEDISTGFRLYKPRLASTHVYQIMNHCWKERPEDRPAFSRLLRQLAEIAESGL
Experiment: LanthaScreen Kinase Binding Assay
Text: This assay is based on the binding and displacement of Alexa-fluor 647-labeled ATP-competitive kinase inhibitor tracer 236. Binding of the tracer is detected using a europium-labeled anti-tag antibody that binds to the purified recombinant tagged Itk protein. Binding of the tracer 236 is reversible and rapid, and simultaneous binding of the tracer and antibody results in fluorescence resonance energy transfer (FRET). Displacement of the tracer upon inhibitor binding results in a decrease of FRET. […]
So I've got a bunch of compounds here, and I need their IC50 values.
// unit must come after the numeric part

Recorded IC50 of C=CC(=O)N[C@H]1CCC[C@@H](Nc2nc(CN3CCOCC3)cc(Nc3nc4cccnc4s3)n2)C1 (relative stereo) , please. 250 nM

And what about the compound "C=CC(=O)N1CC[C@H](Nc2cc(CN[C@@H](C)C(C)(C)C)cc(Nc3nc4cccnc4s3)n2)C1" ? 5 nM

Can you handle "C=CC(=O)N1CC[C@H](Nc2cc(CN3C[C@@H](C)O[C@@H](C)C3)cc(Nc3nc4cccnc4s3)n2)C1" next? 5 nM

Now give it for "C=CC(=O)N1CCC(Nc2nc(CN3CCOCC3)cc(Nc3nc4cccnc4s3)n2)CC1" too. 320 nM

How about this compound: "C=CC(=O)N1CC[C@H](Nc2nc(CN3CCOCC3)cc(Nc3nc4cccnc4s3)n2)C1" 500 nM

Note, next up: "C=CC(=O)N[C@H]1CC[C@H](Nc2nc(CN3CCOCC3)cc(Nc3nc4cccnc4s3)n2)CC1" 2000 nM

Now the same for C=CC(=O)N[C@H]1CCCC[C@H]1Nc1nc(CN2CCOCC2)cc(Nc2nc3cccnc3s2)n1 (relative stereo) 320 nM

Follow-up entry: "C=CC(=O)N1CC[C@H](Nc2cc(CN(C)C)cc(Nc3nc4cccnc4s3)n2)C1" 32 nM

Please give the result for "C=CC(=O)NCCNc1nc(CN2CCOCC2)cc(Nc2nc3cccnc3s2)n1" too. 1300 nM

Try this compound next: "O[C@H]1CC[C@H](Nc2nc(CN3CCOCC3)cc(Nc3nc4cccnc4s3)n2)CC1" 100 nM

Quick one: "C=CC(=O)N1CC[C@@H](Nc2nc(CN3CCOCC3)cc(Nc3nc4cccnc4s3)n2)C1" 20000 nM

And for "C=CC(=O)N1CC[C@H](Nc2cc(CN3CCCCC3)cc(Nc3nc4cccnc4s3)n2)C1" ? 6.3 nM

Next record, please: "C=CC(=O)N1CC[C@H](Nc2cc(CN[C@H](C)C(C)(C)C)cc(Nc3nc4cccnc4s3)n2)C1" 7.9 nM

Try this compound too: "C/C=C/C(=O)N1CC[C@H](Nc2cc(CN3C[C@@H](C)O[C@@H](C)C3)cc(Nc3nc4cccnc4s3)n2)C1" 40 nM
